- Target: recombinant human protein tyrosine phosphatase 1B (PTP-1B) (Homo sapiens, UniProt P18031)
- Sequence (P18031 whole entry): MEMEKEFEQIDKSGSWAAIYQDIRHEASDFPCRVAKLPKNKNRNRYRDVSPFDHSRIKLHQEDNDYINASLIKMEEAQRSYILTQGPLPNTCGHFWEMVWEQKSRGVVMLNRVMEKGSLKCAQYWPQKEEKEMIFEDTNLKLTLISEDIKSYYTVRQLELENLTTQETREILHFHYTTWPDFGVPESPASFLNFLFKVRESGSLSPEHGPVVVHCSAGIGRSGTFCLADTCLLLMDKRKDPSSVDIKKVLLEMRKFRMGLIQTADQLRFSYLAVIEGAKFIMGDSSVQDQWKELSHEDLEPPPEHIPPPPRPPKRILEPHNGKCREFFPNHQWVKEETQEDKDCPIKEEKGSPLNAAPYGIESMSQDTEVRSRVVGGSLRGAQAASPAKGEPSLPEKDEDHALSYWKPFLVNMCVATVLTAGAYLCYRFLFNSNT
- Measurement protocol: PTP-1B activity assay
Endpoint name: IC50 (µM)
Number only, in µM; omit the unit.

Enquiry: So what's the measured IC50 for this one? "COC(=O)c1c(O)ccc2oc3cc(CO)cc(O)c3c(=O)c12"
Return: 81
